The origin of these recorded values is paper PMC6383948.

assayComment: Human plasma protein binding (equilibrium dialysis)
Format: in vitro ADME
studyConditions: pH 7.4, read-out: PPB (converted)
# fraction unbound at 10 µM per entry

>  <compound>
O=C1Nc2ccccc2C1=NNc1ccccc1 [NEU-2116, (Z)-3-(2-Phenylhydrazono)indolin-2-one]

>  <fraction unbound at 10 µM>
< 0.02

$$$$
>  <compound>
COc1ccc(N/N=C2\C(=O)Nc3ccccc32)cc1 [NEU-2114]

>  <fraction unbound at 10 µM>
< 0.03

$$$$
>  <compound>
O=C1Nc2ccccc2/C1=N/Nc1cc(Cl)cc(Cl)c1 [NEU-2117]

>  <fraction unbound at 10 µM>
< 0.04

$$$$

Now for another entry.
Which fraction unbound at 10 µM reading was recorded for the compound CNS(=O)(=O)c1ccc(N/N=C2\C(=O)Nc3cccc(C=C(C)C)c32)cc1 [NEU-4391] ?
< 0.04
